biological target: Ubiquitin carboxyl-terminal hydrolase 17-like protein 5 (Homo sapiens); test: ubiquitin-specific protease 17 DUB inhibitors, concentration-effect assay, cell-free, verification of initial screening actives (AID 1645864); settings: purified USP17, ubiquitin-rhodamine cleavage fluorescence, 3 h
Activity calls are given as the source filed them.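 How the source made its calls: active means maximal inhibition of USP17 at or above 30% in the confirmation dose-response, a value not among the printed readouts; inactive means the rest.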
Labels: Yes for active, No for inactive

MOLECULE	EXPERIMENTAL TARGET	CAT
C=C(NC(=O)C(=C)NC(=O)c1csc(-c2ccc3c(n2)-c2csc(n2)-c2csc(n2)C(C(C)C2CO2)NC(=O)C(Cc2ccc(O)cc2)NC(=O)c2csc(n2)C(C(O)c2ccccc2)NC(=O)c2nc(sc2C)C(CC(N)=O)NC(=O)c2csc-3n2)n1)C(=O)O (configuration not stated)	Ubiquitin carboxyl-terminal hydrolase 17-like protein 5 (Homo sapiens)	Yes
O=C(O)C1CCN(Cc2c(-c3ccco3)nc3ccc(Cl)cn23)CC1	Ubiquitin carboxyl-terminal hydrolase 17-like protein 5 (Homo sapiens)	No
N#Cc1ccc(Cn2nnc(-c3cccc(Cl)c3)n2)cc1	Ubiquitin carboxyl-terminal hydrolase 17-like protein 5 (Homo sapiens)	No
FC(F)(F)c1cccc(N2CCN(c3nc4ccccc4n4nnnc34)CC2)c1	Ubiquitin carboxyl-terminal hydrolase 17-like protein 5 (Homo sapiens)	No
CCS(=O)(=O)N1CCc2cc(C(=O)Nc3ccc4c(c3)OCCO4)ccc21	Ubiquitin carboxyl-terminal hydrolase 17-like protein 5 (Homo sapiens)	No
Cc1ccc2[nH]c3c(=O)n(CC4CCCO4)cnc3c2c1 (configuration not stated)	Ubiquitin carboxyl-terminal hydrolase 17-like protein 5 (Homo sapiens)	Yes
c1cnc(-c2n[nH]c(C3CCN(C4CCNC4)CC3)n2)cn1 (configuration not stated)	Ubiquitin carboxyl-terminal hydrolase 17-like protein 5 (Homo sapiens)	No
O=C(NCCc1ccccc1F)c1cn2cc(Cl)ccc2n1	Ubiquitin carboxyl-terminal hydrolase 17-like protein 5 (Homo sapiens)	Yes
O=C(CSc1ccc(-c2cccc([N+](=O)[O-])c2)nn1)Nc1cccc(F)c1	Ubiquitin carboxyl-terminal hydrolase 17-like protein 5 (Homo sapiens)	Yes
COc1cc(C)c2c(=O)c3c(oc2c1)C(=O)c1c(O)c(OC)cc(O)c1C3=O	Ubiquitin carboxyl-terminal hydrolase 17-like protein 5 (Homo sapiens)	Yes
Cc1noc(-c2cc(=O)n(CC(=O)NCc3ccccc3)c3ccccc23)n1	Ubiquitin carboxyl-terminal hydrolase 17-like protein 5 (Homo sapiens)	Yes
Cc1cccc(-c2nc3n(CC(=O)Nc4ccc(Cl)cc4)c(C)cc(=O)n3n2)c1	Ubiquitin carboxyl-terminal hydrolase 17-like protein 5 (Homo sapiens)	Yes

Hello, the source for this data is PubChem BioAssay AID1645864, in case you need it.
